Recorded values, source patent US9464064B2.

measured-target: E. coli SSB-Cy5-dT15 complex (Escherichia coli, UniProt P0AGE0)
Construct: purchased Promega
Sequence (P0AGE0 2-178, one chain of several): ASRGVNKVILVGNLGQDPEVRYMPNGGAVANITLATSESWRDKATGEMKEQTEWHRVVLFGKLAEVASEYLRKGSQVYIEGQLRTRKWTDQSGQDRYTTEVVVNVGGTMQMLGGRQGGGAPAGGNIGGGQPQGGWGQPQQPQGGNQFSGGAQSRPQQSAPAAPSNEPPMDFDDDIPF
test-method-notes: Escherichia coli SSB Cy5-dT15 binding assay (fluorescence polarization)
condition: read-out: SSB EC50
Below: a set of entries, each annotated with reported EC50.
Answer format: numeric, µM implied, no suffix.

{"smiles-text": "Cc1ccc2nc(-c3ccc4nc(-c5ccc(NC(=O)c6ccc(N(C)C)cc6)cc5)sc4c3)sc2c1S(=O)(=O)O", "units-of-measure": "µM", "EC50": 4}
{"smiles-text": "Cc1ccc2nc(-c3ccc4nc(-c5ccc(NC(=O)c6cc(F)ccc6C(F)(F)F)cc5)sc4c3)sc2c1S(=O)(=O)O", "units-of-measure": "µM", "EC50": 14}
{"smiles-text": "Cc1ccc2nc(-c3ccc4nc(-c5ccc(NC(=O)c6ccccc6)cc5)sc4c3)sc2c1S(=O)(=O)O", "units-of-measure": "µM", "EC50": 4}
{"smiles-text": "Cc1ccc2nc(-c3ccc(NC(=O)c4ccc(NC(=S)Nc5ccccc5)cc4)cc3)sc2c1S(=O)(=O)O.N", "units-of-measure": "µM", "EC50": 23}

Please look at the following compound next.
Input: Look up EC50 for this compound: Cc1ccc2nc(-c3ccc4nc(-c5ccc(NC(=O)c6ccc(Br)cc6)cc5)sc4c3)sc2c1S(=O)(=O)O
Output: 27

====

Below: a set of entries, each annotated with reported Int.* (Ratio) (Interference).
measured-target: HCV NS3 helicase NS3h_1b(con1) (Hepatitis C virus genotype 1b)
Construct: truncated C-terminally His-tagged NS3 proteins lacking the N-terminal protease, called NS3h; His-tag (C); made in house
test-method-notes: MBHA screen of NCI mechanistic set library at 20 μM (percent inhibition, compound interference)
Assay type: biochemical
condition: compounds at 20 μM, MBHA with DNA substrate; assay interference calculated with Equation 2

{"compound": "Cc1cc(=O)[nH]c(NN2C(Cl)C(=O)C2c2cccc(Cl)c2)n1 (stereo not shown) [Compound 653012]", "Int.* (Ratio) (Interference)": "0.91 Ratio"}
{"compound": "[O-][n+]1ccccc1[S-].[O-][n+]1ccccc1[S-].[Zn+2] [Compound 68093]", "Int.* (Ratio) (Interference)": "0.90 Ratio"}
{"compound": "N#CC(NCc1cccc(CNC(C#N)c2ccccc2)c1)c1ccccc1 (stereo not shown) [Compound 681730]", "Int.* (Ratio) (Interference)": "0.88 Ratio"}

Please look at the following compound next.
Input: Look up Int.* (Ratio) (Interference) for this compound: COC(=O)C1(C)CCCC2(C)c3cc(OC)ccc3C(=O)C(Br)C12 (stereo not shown) [Compound 169600]
Output: 0.90 Ratio

====

Below: a set of entries, each annotated with reported IC50.
measured-target: NS3h_2a(JFH1) (Hepatitis C virus genotype 2a)
Construct: truncated C-terminally His-tagged NS3 proteins lacking the N-terminal protease, called NS3h; His-tag (C); made in house
Sequence (Q99IB8 1196-1661): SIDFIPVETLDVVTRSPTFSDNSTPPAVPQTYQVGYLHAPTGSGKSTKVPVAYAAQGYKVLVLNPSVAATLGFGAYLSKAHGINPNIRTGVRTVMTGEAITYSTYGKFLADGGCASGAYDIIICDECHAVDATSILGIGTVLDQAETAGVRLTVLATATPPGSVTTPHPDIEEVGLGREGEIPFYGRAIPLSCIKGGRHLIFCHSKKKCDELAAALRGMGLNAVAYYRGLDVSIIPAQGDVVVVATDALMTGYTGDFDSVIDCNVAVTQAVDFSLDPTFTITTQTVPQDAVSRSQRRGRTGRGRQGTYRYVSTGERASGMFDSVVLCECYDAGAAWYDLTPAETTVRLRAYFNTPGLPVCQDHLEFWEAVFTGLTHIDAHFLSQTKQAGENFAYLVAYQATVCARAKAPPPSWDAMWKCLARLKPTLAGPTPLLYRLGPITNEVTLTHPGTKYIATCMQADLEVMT
test-method-notes: MBHA, DNA substrate, genotype 2a helicase
Assay type: biochemical, hepatitis C virus genotype 2a(JFH1)
condition: genotype 2a (JFH1); read-out: Target Potency MBHA (IC50 avg., μM) 2a (JFH1) (converted)
Description: All oligonucleotides were purchased from Integrated DNA Technologies (IDT, Coralville, Iowa). Primuline derivatives were synthesized and purified as described herein. Three different NS3 proteins were used in this study. […]
Answer format: numeric, µM implied, no suffix.

The following molecules have reported results that may help.
{"molecule": "Cc1ccc2nc(-c3ccc4nc(-c5ccc(NC(=O)c6ccc(C(C)(C)C)cc6)cc5)sc4c3)sc2c1S(=O)(=O)O [Compound 13]", "units-of-measure": "µM", "value": 5}
{"molecule": "Cc1ccc2nc(-c3ccc4nc(-c5ccc(NC(=O)c6cccc(Cl)c6)cc5)sc4c3)sc2c1S(=O)(=O)O [Compound 17]", "units-of-measure": "µM", "value": 3.9}
{"molecule": "Cc1ccc2nc(-c3ccc4nc(-c5ccc(NC(=O)c6ccccc6)cc5)sc4c3)sc2c1S(=O)(=O)O [Compound 5]", "units-of-measure": "µM", "value": 4.6}
{"molecule": "Cc1ccc2nc(-c3ccc4nc(-c5ccc(NC(=O)c6cccc7ccccc67)cc5)sc4c3)sc2c1S(=O)(=O)O.N [Compound 49]", "units-of-measure": "µM", "value": 3.9}

Please look at the following molecule next.
Input: Look up IC50 for this molecule: Cc1ccc2nc(-c3ccc4nc(-c5ccc(NCc6ccccc6)cc5)sc4c3)sc2c1S(=O)(=O)O [Compound 53]
Output: 13.5

====

Below: a set of entries, each annotated with reported Inh. (%) (Inhibition).
measured-target: HCV NS3 helicase NS3h_1b(con1) (Hepatitis C virus genotype 1b, UniProt Q9WMX2)
Construct: truncated C-terminally His-tagged NS3 proteins lacking the N-terminal protease, called NS3h; His-tag (C); made in house
Sequence (Q9WMX2 1192-1657): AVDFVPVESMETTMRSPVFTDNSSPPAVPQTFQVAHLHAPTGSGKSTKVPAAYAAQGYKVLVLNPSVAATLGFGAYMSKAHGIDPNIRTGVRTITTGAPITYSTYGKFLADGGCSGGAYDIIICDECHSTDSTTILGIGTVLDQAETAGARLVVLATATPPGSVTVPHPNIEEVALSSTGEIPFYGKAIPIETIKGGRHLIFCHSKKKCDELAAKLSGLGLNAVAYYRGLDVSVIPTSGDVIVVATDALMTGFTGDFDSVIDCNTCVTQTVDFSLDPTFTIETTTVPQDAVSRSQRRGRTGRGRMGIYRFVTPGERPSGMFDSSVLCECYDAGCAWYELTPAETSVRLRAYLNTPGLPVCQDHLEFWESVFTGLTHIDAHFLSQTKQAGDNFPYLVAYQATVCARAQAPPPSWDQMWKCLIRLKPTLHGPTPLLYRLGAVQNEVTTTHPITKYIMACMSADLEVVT
test-method-notes: MBHA screen of NCI mechanistic set library at 20 μM (percent inhibition, compound interference)
Type: biochemical
condition: compounds at 20 μM, MBHA with DNA substrate; calculated from Equation 1
Starred links: 1 amine or outer side, 2 acyl side, 3 side chain; linkers in the order of their positions; H or OH if unused. Positions of bridges follow the written chain, without caps; N, C: chain ends. Non-standard residues stand in square brackets, D forms with d. Residues, ends and D or L forms follow the SMILES beside them. Chains are numbered I, II in the order given. Actinocin(1to9) = Cc1c2oc3c(C)ccc(C(=O)[*:2])c3nc-2c(C(=O)[*:1])c(N)c1=O; NMeV = CN[C@H](C(=O)O)C(C)C; Sar = CNCC(=O)O
Answer format: numeric, % implied, no suffix.

The following compounds have reported results that may help.
{"compound": "COC(=O)NC1C(C)OC(OC2C/C=C(/C)C3C=CC4C(OC5CC(OC6CC(O)C(OC7CC(O)C(OC)C(C)O7)C(C)O6)C(O)C(C)O5)C(C)CC(C)C4C3(C)/C(O)=C3\\C(=O)OC4(CC(C)C(CO)=CC4/C=C\\2C)C3=O)CC1(C)[N+](=O)[O-] (stereo not shown) [Compound 363182]", "Inh. (%) (Inhibition)": 22.2}
{"compound": "N#CCCN(c1ccc(C=O)cc1)S(=O)(=O)c1ccccc1 [Compound 637914]", "Inh. (%) (Inhibition)": "−11.0"}
{"compound": "CN(N=O)C(=O)N[C@@H]1[C@@H](O)[C@H](O)[C@@H](CO)O[C@@H]1O [Compound 85998]", "Inh. (%) (Inhibition)": "−19.0"}
{"compound": "C=C1C(=O)O[C@@H]2C[C@@H](C)[C@@H]3C=CC(=O)[C@@]3(C)[C@@H](O)[C@H]12 [Compound 85236]", "Inh. (%) (Inhibition)": 0.4}
{"compound": "O/N=C(\\CC(O)(C(F)(F)F)C(F)(F)F)c1cccc(Cl)c1 [Compound 664329]", "Inh. (%) (Inhibition)": "−14.5"}
{"compound": "CC(CN(C)C)C(=O)c1ccccc1C(=O)O (stereo not shown) [Compound 22992]", "Inh. (%) (Inhibition)": 25.9}
{"compound": "CSC1SC[C@H]2C(=O)N(C)[C@@H](C(C)C)C(=O)OC[C@@H](NC(=O)c3cnc4ccccc4n3)C(=O)N[C@@H](C)C(=O)N(C)[C@@H]1C(=O)N(C)[C@@H](C(C)C)C(=O)OC[C@@H](NC(=O)c1cnc3ccccc3n1)C(=O)N[C@@H](C)C(=O)N2C (stereo partly shown) [Compound 526417]", "Inh. (%) (Inhibition)": 55.2}
{"compound": "Cc1cc2nc(C=C(C(F)(F)F)C(F)(F)F)oc2cc1C [Compound 168415]", "Inh. (%) (Inhibition)": 13.3}
{"compound": "CC[C@H](C)[C@@H]1NC(=O)[C@@H](NC(=O)c2c3nc4c(C(=O)N[C@@H]5C(=O)N[C@@H](C(C)C)C(=O)N6CCC[C@H]6C(=O)N(C)CC(=O)N(C)[C@@H](C(C)C)C(=O)O[C@@H]5C)ccc(C)c4oc-3c(C)c(=O)c2N)[C@@H](C)OC(=O)[C@H](C(C)C)N(C)C(=O)CN(C)C(=O)[C@@H]2CCCN2C1=O [Compound 18268] (I: TIP[Sar][NMeV] / II: TVP[Sar][NMeV]; ester I:1-I:C, II:1-II:C; linker I:N-II:N via Actinocin(1to9))", "Inh. (%) (Inhibition)": 27.6}
{"compound": "C[C@H](CN1CC(=O)NC(=O)C1)N1CC(=O)NC(=O)C1 [Compound 169779]", "Inh. (%) (Inhibition)": "−9.4"}

Input: Look up Inh. (%) (Inhibition) for this compound: C=C1C(=O)OC2CC1C(OC(C)=O)C/C(C)=C/CC/C(C)=C\CCC2(C)O (stereo not shown) [Compound 36437]
Output: −17.3

Input: // repeat for Oc1ccc(-c2nc3ccccc3s2)cc1 [Compound 33004] and report
Output: −0.9

Input: // repeat for Cc1nc(C(N)=S)sc1C(=O)CC(=O)C(=O)Nc1c(C(C)C)cccc1C(C)C [Compound 642048] and report
Output: −11.3

Input: // repeat for Cc1ccc(S(=O)(=O)c2ccccc2[N+](=O)[O-])cc1 [Compound 627708] and report
Output: −11.4

Input: // repeat for Cn1ncc2cc3c(Nc4ccc(Cl)cc4)cccc3nc21 [Compound 622732] and report
Output: 27.4

Input: // repeat for C/C=C(\CCC1NCCc2c1[nH]c1ccccc21)[Si](C)(C)C (stereo not shown) [Compound 619165] and report
Output: 13.6

Input: // repeat for O=C1C(C(O)(C(F)(F)F)C(F)(F)F)CCC1C(O)(C(F)(F)F)C(F)(F)F (stereo not shown) [Compound 664181] and report
Output: 14.5

Input: // repeat for COc1ccc(OC)c(-c2cc(=O)c3c(OC)c(OC)c(OC)c(OC)c3o2)c1 [Compound 71300] and report
Output: 2.2
